Read-out: CYP2C9 (gene 1559)
Experiment: LTEA_HepaRG_CYP2C9: Life Technologies and Expression Analysis (LTEA) Assay for CYP2C9 using HepaRG (AID 2283484)
Settings: mRNA level, 48 h; actives raise or lower the signal
Calls of active or inactive are those of the source. The calls were made as follows: active = hit-call score of the fitted dose curve at least 0.9, where 1 is the maximum; inactive = score below 0.9.
Possible outcomes: active, inactive

Compound: CC(C)=CC1C(C(=O)OCc2coc(Cc3ccccc3)c2)C1(C)C (stereo unspecified)
Label Class: inactive

Compound: CCCCC(C#N)(Cn1cncn1)c1ccc(Cl)cc1 (stereo unspecified)
Label Class: inactive

Compound: C=CCOC(=O)C(C)(C)OC(=O)c1cc(-n2c(=O)cc(C(F)(F)F)n(C)c2=O)ccc1Cl
Label Class: inactive

Compound: CCNC(=O)NC(=O)C(C#N)=NOC
Label Class: inactive

Compound: Nc1c(Cl)c(F)nc(OCC(=O)O)c1Cl
Label Class: inactive

Compound: COCc1cnc(C2=NC(C)(C(C)C)C(=O)N2)c(C(=O)O)c1 (stereo unspecified)
Label Class: inactive

Compound: CC(C)(C)C(=O)C(Oc1ccc(Cl)cc1)n1cncn1 (stereo unspecified)
Label Class: inactive

Compound: O=C(Nc1ccccc1-c1ccc(Cl)cc1)c1cccnc1Cl
Label Class: inactive

Compound: Cc1cnc(C2=NC(C)(C(C)C)C(=O)N2)c(C(=O)O)c1 (stereo unspecified)
Label Class: inactive

Compound: CCCN(CC)CC1COC2(CCC(C(C)(C)C)CC2)O1 (stereo unspecified)
Label Class: inactive

Compound: CC1(C)C(C(=O)OC(C#N)c2cccc(Oc3ccccc3)c2)C1(C)C (stereo unspecified)
Label Class: inactive

Compound: COP(=S)(OC)Oc1ccc([N+](=O)[O-])c(C)c1
Label Class: inactive

Compound: CN=C=S
Label Class: inactive

Compound: CCOc1nc(C(Cl)(Cl)Cl)ns1
Label Class: inactive

Compound: CCSC(=O)N1CCCCCC1
Label Class: inactive

Compound: COCC(C)N(C(=O)CCl)c1c(C)csc1C (stereo unspecified)
Label Class: inactive

Compound: CC(C)NC(=O)N1CC(=O)N(c2cc(Cl)cc(Cl)c2)C1=O
Label Class: inactive

Compound: OC(c1ccc(Cl)cc1)(c1ccc(Cl)cc1)C(Cl)(Cl)Cl
Label Class: active

Compound: CC(C)N1C(=O)N(c2ccccc2)CSC1=NC(C)(C)C
Label Class: active

Compound: CC(C)Oc1cccc(NC(=O)c2ccccc2C(F)(F)F)c1
Label Class: inactive

Compound: CCOP(=O)(OCC)Oc1nc(Cl)c(Cl)cc1Cl
Label Class: active

Compound: Nc1cnn(-c2ccccc2)c(=O)c1Cl
Label Class: inactive

Compound: Nc1c(Cl)c(Cl)nc(C(=O)O)c1Cl
Label Class: inactive

Compound: CCNP(=S)(OC)O/C(C)=C/C(=O)OC(C)C (stereo unspecified)
Label Class: inactive

Compound: CCOC(=O)C(C)OC(=O)c1cc(Oc2ccc(C(F)(F)F)cc2Cl)ccc1[N+](=O)[O-] (stereo unspecified)
Label Class: inactive

Compound: CCC(C)n1c(=O)[nH]c(C)c(Br)c1=O (stereo unspecified)
Label Class: inactive
